Reference source: paper PMC11252414

Biological target: lactoferrin (LF) (bovine (milk), UniProt P24627 20-708)
Sequence (P24627 20-708): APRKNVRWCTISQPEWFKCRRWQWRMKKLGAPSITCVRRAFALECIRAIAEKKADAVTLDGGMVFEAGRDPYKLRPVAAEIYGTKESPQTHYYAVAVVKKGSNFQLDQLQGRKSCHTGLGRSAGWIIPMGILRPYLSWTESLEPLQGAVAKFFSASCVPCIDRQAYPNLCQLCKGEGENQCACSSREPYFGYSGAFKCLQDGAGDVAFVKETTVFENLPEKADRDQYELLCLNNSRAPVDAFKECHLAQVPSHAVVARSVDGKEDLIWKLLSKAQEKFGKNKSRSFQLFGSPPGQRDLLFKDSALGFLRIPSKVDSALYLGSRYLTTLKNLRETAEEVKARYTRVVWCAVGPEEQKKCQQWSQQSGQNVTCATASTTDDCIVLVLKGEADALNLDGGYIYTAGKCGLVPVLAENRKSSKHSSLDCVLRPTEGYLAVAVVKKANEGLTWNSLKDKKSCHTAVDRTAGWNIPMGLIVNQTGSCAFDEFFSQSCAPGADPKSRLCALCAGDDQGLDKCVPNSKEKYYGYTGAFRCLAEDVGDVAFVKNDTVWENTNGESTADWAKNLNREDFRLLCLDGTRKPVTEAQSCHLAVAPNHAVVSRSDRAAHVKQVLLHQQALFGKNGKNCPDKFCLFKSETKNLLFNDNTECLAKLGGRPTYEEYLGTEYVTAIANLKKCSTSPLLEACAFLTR
Assay: RIFTS (porous Si interferometry); SHM (herringbone) microchannel, 30 ul/min; Selection buffer: PBS (137 mM NaCl, 10 mM Na2HPO4, 2.7 mM KCl, 2 mM KH2PO4) + 1 mM MgCl2, pH 7.4, room temperature; GI fluid at 37 C
Conditions: protein: commercial; label: none; single strand
recorded metric: Kd (nM)
# output: bare number, implied unit nM

Fill blank: measured Kd of the binder Lac 9-2 anti-LF aptamer with T10 spacer (ssDNA, 3'-amino, coupled via NHS/EDC to carboxylated porous Si) DNA: CAGGCAGGACACCGTAACCGGTGCATCTATGGCTACTAGCTCTTCCTGCCTATTTTTTTTTT is ____.
1600
